target: SOS1:KRAS (G12C) interaction (Homo sapiens (Human), UniProt Q07889); experiment: SOS1-KRas(G12C) FRET Assay; details: 0.5 nM His10-SOS1 (res. 564-1049), 2.5 nM GST-KRAS (res. 1-169, G12C); read-out: SOS-KRas(G12C) FRET IC50
Sequence (Q07889 564-1049, stated change not applied): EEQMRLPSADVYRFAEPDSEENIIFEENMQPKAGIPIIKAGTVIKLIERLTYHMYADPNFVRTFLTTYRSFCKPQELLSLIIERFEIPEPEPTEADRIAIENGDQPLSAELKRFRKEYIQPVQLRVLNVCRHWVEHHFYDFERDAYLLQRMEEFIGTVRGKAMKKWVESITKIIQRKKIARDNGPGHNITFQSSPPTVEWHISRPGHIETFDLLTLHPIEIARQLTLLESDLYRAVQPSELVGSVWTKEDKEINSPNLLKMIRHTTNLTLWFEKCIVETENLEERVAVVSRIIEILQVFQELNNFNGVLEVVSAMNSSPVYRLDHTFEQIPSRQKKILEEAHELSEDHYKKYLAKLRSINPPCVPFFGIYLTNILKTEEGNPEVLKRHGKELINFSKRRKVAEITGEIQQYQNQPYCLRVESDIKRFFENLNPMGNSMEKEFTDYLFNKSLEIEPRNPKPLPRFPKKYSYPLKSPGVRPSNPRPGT
pIC50: −log10 of the molar value.
VALUE_KIND: pIC50

{"MOLECULE": "C[C@H](Nc1nn(C)c(=O)c2cc(=O)n(C3CCOCC3)cc12)c1cccc(C(F)(F)[C@@H]2CCCO2)c1F (single isomer, unassigned) [Example 44]", "MEASURED_TARGET": "SOS1:KRAS (G12C) interaction (Homo sapiens (Human), UniProt Q07889)", "RESULT": 5.24}

[A] COC(C)(C)C(F)(F)c1cccc([C@@H](C)Nc2nn(C)c(=O)c3cc(=O)n(C4(C(F)F)CC4)cc23)c1F [Example 110]
[B] C[C@@H](Nc1nn(C)c(=O)c2cc(=O)n(C3(CN4CC(F)C4)CC3)cc12)c1cccc(C(F)F)c1F [Example 124]
[C] Cc1c([C@@H](C)Nc2nn(C)c(=O)c3cc(=O)n([C@H]4C[C@@H](O)C4)cc23)cccc1C(F)(F)F [Example 14]
[D] C[C@@H](Nc1nn(C)c(=O)c2cc(=O)n([C@@]3(C(F)(F)F)CCOC3)cc12)c1cccc2c1OCC2(F)F (single isomer, unassigned) [Example 168]
[E] C[C@@H](Nc1nn(C)c(=O)c2cc(=O)n([C@H]3CCCOC3)cc12)c1cccc(C(F)F)c1F (single isomer, unassigned) [Example 38]
Problem: Sort by pIC50, descending. The reply should contain the labels ordered as requested.
Result: D, A, E, C, B
(D: 7.87, A: 7.32, E: 6.68, C: 6.27, B: 6.05)
